Provide the recorded pKi for the entries that follow.
- Target system: human melanocortin receptor subtype 5 (hMC5-R) (human) (UniProt P33032)
- Sequence (P33032 whole entry): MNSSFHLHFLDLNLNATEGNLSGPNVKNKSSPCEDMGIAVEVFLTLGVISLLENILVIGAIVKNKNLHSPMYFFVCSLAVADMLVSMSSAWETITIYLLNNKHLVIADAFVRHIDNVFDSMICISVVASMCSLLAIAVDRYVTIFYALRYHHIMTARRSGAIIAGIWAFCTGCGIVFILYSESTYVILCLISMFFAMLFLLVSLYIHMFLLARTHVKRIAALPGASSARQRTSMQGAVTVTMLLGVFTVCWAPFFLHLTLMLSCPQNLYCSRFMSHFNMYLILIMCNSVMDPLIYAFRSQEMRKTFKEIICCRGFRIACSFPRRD
- Protocol notes: [125I]-NDP-α-MSH competition, membranes
Bridge positions count the residues as written; N and C are the ends. Square brackets hold non-standard residues; d marks the D form. Ends that are not written are not given here. Orn = NCCC[C@H](N)C(=O)O; Dab = NCC[C@H](N)C(=O)O
Numbers only, as −log10 of the molar value.

- Binder: "G[dR]C[dA]H[dF]RWC-NH2 (bridge N-2 via C(O) hydantoin; disulfide 3-9; not fully specified) [Hydantoin(C(O)-(Gly-D-Arg))-c(Cys-D-Ala-His-D-Phe-Arg-Trp-Cys)-NH2]"
  pKi: 6.04
- Binder: "E[dA]H[dF]RW[Dab]-NH2 (lactam 1-7; also: hydantoin ring from C(O) with Glu1-D-Ala2) [c[Hydantoin(C(O)-(Glu-D-Ala))-His-D-Phe-Arg-Trp-Dab]-NH2]"
  pKi: 6.06

Then this binder:
Prompt: What value of pKi has been recorded for this entry: D[dA]H[dF]RW[Orn]-NH2 (lactam 1-7; also: hydantoin ring from C(O) with Asp1-D-Ala2) [c[Hydantoin(C(O)-(Asp-D-Ala))-His-D-Phe-Arg-Trp-Orn]-NH2]
Response: 5.19
